Data credit: patent US20250019427A1

For each of the binders below, state its pKd.
System name: T1, Human GDF15 Fc (human) (UniProt Q99988)
T1 sequence (chain, biotinylated (EZ-Link Sulfo-NHS-Biotinylation Kit) where printed as biotinylated): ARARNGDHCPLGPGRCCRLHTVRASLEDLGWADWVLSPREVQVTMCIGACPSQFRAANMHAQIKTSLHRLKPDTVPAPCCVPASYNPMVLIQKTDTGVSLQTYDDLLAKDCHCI
Assay notes: Octet BLI, IgG on tip, avid
Convention used: pKd is expressed as -log10 of the molar concentration.

### Prompt Look at this binder and give its reported pKd. Clone I IgG (antibody, V domains shown) VH: QVQLVQSGAEVKKPGASVKVSCKASGYTFTDEGINWVRQAPGQGLEWMGWITAYSGDTVYAQKLQGRVTMTTDTSTSTAYMELRSLRSDDTAVYYCARGPGQYADVDVWGQGTMVTVSS VL: DIQMTQSPSSVSASVGDRVTITCRASQGISSWLAWYQQKPGKAPKLLIYAASSLQSGVPSRFSGSGSGTDFTLTISSLQPEDFATYYCQQANSFPITFGGGTKVEIKR
### Response 9.58

### Prompt Look at this binder and give its reported pKd. Clone O IgG (antibody, V domains shown) VH: QVQLVQSGAEVKKPGATVKVSCKASGYTFDSLGMSWVRQAPGQGLEWMGYISTYSGDTVYAQKLQGRVTMTTDTSTSTAYMELRSLRSDDTAVYYCARESGQQVSALDPWGQGTLVTVSS VL: DIQMTQSPSSVSASVGDRVTITCRASQGISRWLAWYQQKPGKAPKLLIYAASSLQSGVPSRFSGSGSGTDFTLTISSLQPEDFATYYCQQGASFPLTFGGGTKVEIKR
### Response 9.42

### Prompt Look at this binder and give its reported pKd. Clone P IgG (antibody, V domains shown) VH: QVQLVQSGAEVKKPGATVKVSCKASGYTFDSYGIHWVRQAPGQGLEWMGWITAYSGDTVYAQKLQGRVTMTTDTSTSTAYMELRSLRSDDTAVYYCARESGQTSSALGPWGQGTLVTVSS VL: DIQMTQSPSSVSASVGDRVTITCRASQGISRWLAWYQQKPGKAPKLLIYAASSLQSGVPSRFSGSGSGTDFTLTISSLQPEDFATYYCQQGASFPLTFGGGTKVEIKR
### Response 9.56

### Prompt Look at this binder and give its reported pKd. Clone L IgG (antibody, V domains shown) VH: QVQLVQSGAEVKKPGASVKVSCKASGYTFASYDIIWVRQAPGQGLEWMGWISALSGDTVYAQKLQGRVTMTTDTSTSTAYMELRSLRSDDTAVYYCARTRHDTSGIRFDYWGQGTLVTVSS VL: DIQMTQSPSSVSASVGDRVTITCRASQGIDSWLAWYQQKPGKAPKLLIYAASSLQSGVPSRFSGSGSGTDFTLTISSLQPEDFATYYCQQVHSFPITFGGGTKVEIKR
### Response 9.49

### Prompt Look at this binder and give its reported pKd. Clone J IgG (antibody, V domains shown) VH: QVQLVQSGAEVKKPGASVKVSCKASGYTFTSYGINWVRQAPGQGLEWMGWIDAYSGSTNYAQKLQGRVTMTTDTSTSTAYMELRSLRSDDTAVYYCARGPGQYADVDVWGQGTMVTVSS VL: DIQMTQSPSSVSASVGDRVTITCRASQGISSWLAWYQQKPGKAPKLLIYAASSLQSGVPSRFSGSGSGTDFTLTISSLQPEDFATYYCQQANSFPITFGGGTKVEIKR
### Response 9.56

### Prompt Look at this binder and give its reported pKd. Clone K IgG (antibody, V domains shown) VH: QVQLVQSGAEVKKPGASVKVSCKASGYTFTNEGISWVRQAPGQGLEWMGWISAYTADTFYAQKLQGRVTMTTDTSTSTAYMELRSLRSDDTAVYYCARTRHDTSGLRFDYWGQGTLVTVSS VL: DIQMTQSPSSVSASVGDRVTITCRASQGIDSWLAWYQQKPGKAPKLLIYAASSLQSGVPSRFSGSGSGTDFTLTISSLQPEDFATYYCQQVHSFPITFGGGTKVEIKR
### Response 9.57

### Prompt Look at this binder and give its reported pKd. Clone E IgG (antibody, V domains shown) VH: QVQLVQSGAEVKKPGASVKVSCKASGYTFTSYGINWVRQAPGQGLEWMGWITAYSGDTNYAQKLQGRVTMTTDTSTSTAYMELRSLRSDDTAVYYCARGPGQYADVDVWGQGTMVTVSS VL: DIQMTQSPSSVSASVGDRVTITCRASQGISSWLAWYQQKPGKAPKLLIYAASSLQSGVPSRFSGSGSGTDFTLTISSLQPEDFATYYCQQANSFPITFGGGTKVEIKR
### Response 9.56
